test: Clinical pharmacokinetics: plasma CYH33 and I27 by LC/MS/MS; type: in vivo, human; details: C1D1, 1 mg, 4 h
readout: CYH33 plasma concentration, mean

INSERT INTO measurements (compoundstructurestring, readout, experimentalresult) VALUES
  ('COC(=O)Nc1cc(C(F)(F)F)c(-c2nc(N3CCOCC3)c3cc(CN4CCN(S(C)(=O)=O)CC4)cn3n2)cn1', 'CYH33 plasma concentration, mean', '2.9 ng/mL');

###

test: Clinical pharmacokinetics: plasma CYH33 and I27 by LC/MS/MS; format: in vivo, human; conditions: C1D28, 10 mg, 1 h
readout: CYH33 plasma concentration, mean (ng/mL)

INSERT INTO results (compoundstructurestring, experimentalresult) VALUES
  ('COC(=O)Nc1cc(C(F)(F)F)c(-c2nc(N3CCOCC3)c3cc(CN4CCN(S(C)(=O)=O)CC4)cn3n2)cn1', 61.4);
